Please provide measured TGI for the entries that follow.
- Tested on: SNB-19 CNS
- PROTOCOL SUMMARY: NCI tumour cell line growth inhibition, 48 h

Worked set:
[[record]]
molecule = "Cc1cc(CNC(=O)OCc2ccccc2)c(C)c2c1Oc1ccccc1O2"
measurement_kind = "TGI"
observed = "> 92.9 µM"

[[record]]
molecule = "CC(C)SC(C)(NC(=O)C1C(C)(C)CCC1(C)C)C(=O)O (stereo unspecified)"
measurement_kind = "TGI"
observed = "> 100 µM"

[[record]]
molecule = "O=C(Nc1ccc(F)cc1)c1c(NC(=O)C(F)(F)F)sc2c1CCCCC2"
measurement_kind = "TGI"
observed = "21.4 µM"

[[record]]
molecule = "COC(=O)c1sc(C(=O)OC)c2c1CSC2"
measurement_kind = "TGI"
observed = "> 85.8 µM"

[[record]]
molecule = "CC12CCC(C(=O)O1)C(C)(C)O2 (stereo unspecified)"
measurement_kind = "TGI"
observed = "> 100 µM"


List the reported TGI of each molecule below.
1. Cn1c(C(C#N)c2nc(Cl)ncc2Br)nc2ccccc21 (stereo unspecified)
2. O=c1c(SSc2coc3cc(F)ccc3c2=O)coc2cc(F)ccc12
3. CC(C)C(C/C=C1\CC(CO)(COC(=O)c2ccccc2)OC1=O)C(C)C (stereo unspecified)
4. CN(C)N1C(=O)c2ccccc2NC1c1ccccc1 (stereo unspecified)
5. COc1ccc(O[C@H](COCc2ccccc2)C[C@@H]2COC(C)(C)O2)cc1
6. CC(C(=O)ON1C(=O)CCC1=O)c1ccc(C(=O)c2ccccc2)s1 (stereo unspecified)

// result
["> 100 µM", "> 100 µM", "31.8 µM", "> 100 µM", "> 100 µM", "> 100 µM"]

----------
- System: DU-145 prostate
- PROTOCOL SUMMARY: NCI tumour cell line growth inhibition, 48 h
Answer each item with its documented TGI.
One number for each entry, in µM.

[[record]]
compound = "Clc1ccc(Cc2nc3ccc(CCN4CCN(c5ccccc5)CC4)cc3[nH]2)cc1"
output_unit = "µM"
observed = 44


For each entry beneath this line, provide reported TGI.
1. O=C1Sc2ccc(Br)cc2C(=O)Sc2ccccc21
2. C#CC1(O)C(COP(=O)(O)OC2CC(n3cc(F)c(=O)[nH]c3=O)OC2CO)OC(n2ccc(N)nc2=O)C1O (centres undefined)

// result
1: 25.5; 2: 3.62

// query Find the measured TGI: item O=C1C=C(Br)C(=O)C12CCc1ccccc12 (centres undefined) , target or system DU-145 prostate.
// result 31.7

----------
- System: MDA-MB-435
Mark one answer only. Choices: True = active, False = inactive

[[record]]
molecule = "COc1cc2c3c(c1)c1cc(OC)c(OC)cc1c[n+]3CC2"
system_name = "MDA-MB-435"
group = "False"

[[record]]
molecule = "CC[C@@]1(O)C(=O)NCc2c1cc1n(c2=O)Cc2cc3c(N)cccc3nc2-1"
system_name = "MDA-MB-435"
group = "False"

[[record]]
molecule = "CCN1C(=S)N(CC)C2C1NC(=S)N2/N=C/C=C/c1ccccc1 (stereo not given)"
system_name = "MDA-MB-435"
group = "True"

[[record]]
molecule = "CCOC(=O)C(Cc1c[nH]c2ccc(N(CCCl)CCCl)cc12)(NC(C)=O)C(=O)OCC"
system_name = "MDA-MB-435"
group = "False"


// query Dear all, I need the recorded test outcome for CCCCCCCCCCN(CCCCCCCCCC)CC(=O)c1ccc2cc(Br)c3ccccc3c2c1 , thank you.
// result False

----------
- Test system: SF-539 CNS
- PROTOCOL SUMMARY: NCI tumour cell line growth inhibition, 48 h
MEASUREMENT KIND: TGI (µM)
One number for each entry, in µM.

[[record]]
compound = "CC/C=C\\C[C@H](O)C/C=C1/C(=O)C=C[C@@H]1C/C=C\\CCCC(=O)N(C)C"
observed = 7.14

[[record]]
compound = "O=C1/C(=C\\c2cccc(Oc3ccccc3)c2)S(=O)(=O)C(c2ccccc2)N1c1ccccc1Cl (stereo not given)"
observed = 34.3

[[record]]
compound = "O=C1Sc2ccc(Br)cc2C(=O)Sc2ccccc21"
observed = 26.4

[[record]]
compound = "Cc1nc2ccc(Nc3nc(NCCN4CCOCC4)nc(Nc4ccc(F)cc4)n3)cc2n1Cc1ccccc1"
observed = 3.23


// moving on: another record for TGI
// query What does the record list as TGI for CCOC(=O)Nc1c(C#N)[n+]([O-])c2cc(Cl)c(Cl)cc2[n+]1[O-] ?
// result 30.9

----------
Please respond with reported GI50 for every item in the list.
- Tested on: HCT-15 colon

In the examples that follow, each entry is paired with its recorded GI50.
[[record]]
compound = "CCN1C(=S)N(CC)C2C1NC(=S)N2/N=C/C=C/c1ccccc1 (centres undefined)"
system_name = "HCT-15 colon"
measurement_kind = "GI50"
observed = "0.77 µM"

[[record]]
compound = "Cn1c(=O)c(Oc2ccccc2F)cc2cnc(NC3CCOCC3)nc21"
system_name = "HCT-15 colon"
measurement_kind = "GI50"
observed = "> 25 µM"


Below is a list of compounds. For each, state its recorded GI50.
1. N=C(N=C(N)N)N1CCN(c2ccncc2)CC1
2. COc1ccc2c(Nc3ccc(NS(C)(=O)=O)cc3)c3ccccc3nc2c1

// result
1. > 1000 µM
2. 1.41 µM

// for each compound in input: emit GI50
1. CCOC(=O)C(=Cc1ccccc1[N+](=O)[O-])C(=O)OCC
2. COc1ccc(/C=C/c2nc(NCCCN(C)C)c3ccccc3n2)cc1
3. Cc1sc(C)c(Cc2c(C)sc(C)c2CCl)c1CCl
4. O=[N+]([O-])c1ccc(N/N=C/c2c(O)ccc3ccccc23)nc1
5. COC(=O)c1c2c(c(C)[n+]([O-])c1C)C(=O)C=C(NCc1ccc(F)c(F)c1)C2=O

// result
1.83 µM
16.3 µM
> 100 µM
0.655 µM
0.235 µM

----------
Assign TGI to each entry below.
- Tested on: MDA-MB-435
- PROTOCOL SUMMARY: NCI tumour cell line growth inhibition, 48 h
Give bare numbers, in µM.

Would you please look over these solved cases?
[[record]]
molecule = "NCCCn1c2ccccc2c2c3c(c4c(c21)CCC(O)CC4)C(=O)NC3=O (configuration not stated)"
output_unit = "µM"
observed = 13.6

[[record]]
molecule = "ClC(Cl)c1nc(-c2cccnc2)n2nc(-c3ccccc3)cc2n1"
output_unit = "µM"
observed = 2.82

[[record]]
molecule = "O=C1C(NCCc2ccc(O)c(O)c2)=CC(=O)c2ncccc21"
output_unit = "µM"
observed = 3.28

[[record]]
molecule = "O=C1C(F)=CC(COC(c2ccccc2)(c2ccccc2)c2ccccc2)OC1n1cc(F)c(=O)[nH]c1=O (configuration not stated)"
output_unit = "µM"
observed = 3.18

[[record]]
molecule = "CC(C)c1ccc(C(=O)Nc2sc3c(c2C#N)CCC(=O)C3)cc1"
output_unit = "µM"
observed = 5.72

[[record]]
molecule = "CO/C1=C\\C(C)=C\\C(C)C(O)C(C)C/C(C)=C/C=C/C(OC)C(C(C)C(O)C(C)C2(O)CC(O)C(C)C(C(C)C)O2)OC1=O (configuration not stated)"
output_unit = "µM"
observed = 0.0042


Field: next molecule
// query Which TGI is reported for this molecule? COCCOC(=O)NC(=O)Nc1ccc(/C(=N/O)c2ccc(Cl)cc2)cc1
// result 0.374

----------
- Tested on: M14 melanoma
- PROTOCOL SUMMARY: NCI tumour cell line growth inhibition, 48 h
MEASUREMENT KIND: TGI (µM)
Answers are plain numbers, in µM.

[[record]]
compound = "Cc1sc2nc(-c3cc([N+](=O)[O-])c(Cl)cc3Cl)c(/C=N/N=C(N)N)n2c1C"
output_unit = "µM"
observed = 7

[[record]]
compound = "C#CC1(O)C(COP(=O)(O)OC2CC(n3cc(F)c(=O)[nH]c3=O)OC2CO)OC(n2ccc(N)nc2=O)C1O (centres undefined)"
output_unit = "µM"
observed = 0.774

[[record]]
compound = "CC(C)C(C/C=C1\\CC(CO)(COC(=O)c2ccccc2)OC1=O)C(C)C (centres undefined)"
output_unit = "µM"
observed = 32.8

[[record]]
compound = "CCCCCCCCCCN(CCCCCCCCCC)CC(=O)c1ccc2cc(Br)c3ccccc3c2c1"
output_unit = "µM"
observed = 3.53

[[record]]
compound = "NNc1cccc(/C=C/c2ccccc2)cc1=O"
output_unit = "µM"
observed = 44.7


Next:
// query Would you kindly share the measured TGI for CC(=O)OC1CC2C(C)(C)C(=O)C=C[C@]2(C)C2CCC3(C)C(c4ccoc4)C(=O)[C@H]4O[C@]43[C@]12C (some centres undefined) ?
// result 82.4

----------
- Tested on: NCI-H23 lung
- PROTOCOL SUMMARY: NCI tumour cell line growth inhibition, 48 h
Rule: 1 for TGI not less than 30 µM, 0 for anything less.

[[record]]
compound = "O=C1O/C(=C(\\Br)c2cccc3ccccc23)c2ccccc21"
group = 1

[[record]]
compound = "Cc1sc2nc(-c3cc([N+](=O)[O-])c(Cl)cc3Cl)c(/C=N/N=C(N)N)n2c1C"
group = 0

[[record]]
compound = "CCCCCCCC(=O)OC(CBr)COC(=O)C(C)(C)C (stereo not given)"
group = 1


// query Entry O=C1C=C(Br)C(=O)C12CCc1ccccc12 (stereo not given) : is its TGI no less than 30 µM?
// result 1

// query Check the entry Clc1ccc2[nH]cc(-c3nc(-c4c[nH]c5ncccc45)cs3)c2c1 : does TGI equal or exceed 30 µM?
// result 0

// query Evaluate O=C1C[C@@H]2C(COC(=O)c3ccccc3)N(OCc3ccccc3)C[C@@H]2O1 (stereo not given in full) : TGI at minimum 30 µM?
// result 1

// query In plain terms: is recorded TGI at least 30 µM for CNc1ccc(-c2nc3cc(C)ccc3o2)cc1 ?
// result 1

// query TGI >= 30 µM for CCC1C(c2cccc(OC)c2O)c2cc3c(cc2OC1N1CCCC1)OCO3 (stereo not given) ?
// result 1

// query Check this compound for TGI at or above 30 µM: CN(C)C(N)=NC#N
// result 1

// query Would you say CN1C(=S)C(c2ccccc2)Sc2ccccc21 (stereo not given) shows TGI at minimum 30 µM?
// result 1

// query Is the recorded value of TGI equal to or greater than 30 µM for this compound? COc1ccc(N2C(=Nc3ccccc3)SC(=N/S(=O)(=O)c3ccccc3)/C2=N\S(=O)(=O)c2ccccc2)cc1
// result 0

// query For this compound, is measured TGI 30 µM or higher? Cc1ccsc1/C=N/Nc1cc(C)c2cccc(C)c2n1
// result 1

// query Could you tell me if the measured TGI of Cn1c(C(C#N)c2nc(Cl)ncc2Br)nc2ccccc21 (stereo not given) reaches 30 µM or more?
// result 1

// query Test whether the compound O=c1nc(Nc2cccc(Cl)c2)oc2cc(Cl)oc(=O)c12 records TGI of 30 µM or higher.
// result 0

// query State whether the measured TGI reaches 30 µM, counting equality as reaching it, for CCCCc1c(C(=O)OC(C)(C)C)cc(C#Cc2cc(C(=O)OC(C)(C)C)c(CCCC)c(C(=O)OC(C)(C)C)c2)cc1C(=O)OC(C)(C)C
// result 1

// query Form field: TGI at least 30 µM? Entry: CN1c2ccccc2N(C)C2C1N(C)c1ccccc1N2C (stereo not given)
// result 1

// query Quick check: does O=C(CN1CCN(Cc2ccccc2)CC1)N1CCCn2c1nc1ccccc1c2=O have TGI greater than or equal to 30 µM?
// result 1

// query Does the reported TGI for C=CCOCn1cnc2c(N)ncnc21 fall at or above the 30 µM mark?
// result 1

// query Reported TGI reaches at least 30 µM for NNc1nc2ccccc2c(=O)n1NC(=O)C(=O)Nc1cccc(C(F)(F)F)c1 ?
// result 1

// query Could you please find out whether O=C1Sc2ccc(Br)cc2C(=O)Sc2ccccc21 has TGI that meets 30 µM or exceeds it?
// result 1

Values from PubChem BioAssay (NCI)
